biological target: cGMP-specific 3',5'-cyclic phosphodiesterase (Homo sapiens, UniProt O76074); assay: Inhibition of human recombinant PDE5A1 using FAM-cGMP as substrate incubated for 60 mins by fluorescence polarization method

{"columns": ["smiles text", "measured target", "IC50 (µM)"],
 "data": [
  ["O=c1cc(CCc2ccccc2)oc2c1[C@H](O)[C@@H](O)[C@@H](O)[C@@H]2Oc1cc2oc(CCc3ccccc3)cc(=O)c2cc1O", "cGMP-specific 3',5'-cyclic phosphodiesterase (Homo sapiens, UniProt O76074)", 4.2],
  ["O=C(CCc1ccccc1)O[C@@H]1c2oc(CCc3ccccc3)cc(=O)c2[C@H](O)[C@@H](O)[C@H]1O", "cGMP-specific 3',5'-cyclic phosphodiesterase (Homo sapiens, UniProt O76074)", 15.1],
  ["COc1ccc(CCc2cc(=O)c3cc(O)c(O[C@@H]4c5oc(CCc6ccccc6)cc(=O)c5[C@H](O)[C@@H](O)[C@H]4O)cc3o2)cc1", "cGMP-specific 3',5'-cyclic phosphodiesterase (Homo sapiens, UniProt O76074)", 4.3],
  ["COc1ccc(CCc2cc(=O)c3c(o2)[C@@H](Oc2cc(O)cc4c(=O)cc(CCc5ccccc5)oc24)[C@H](O)[C@H](O)[C@H]3O)cc1", "cGMP-specific 3',5'-cyclic phosphodiesterase (Homo sapiens, UniProt O76074)", 7.9]
]}
